All values here come from patent US11554171B2.

Test system: c-myc in 22RV-1 cells
Test: Human c-myc ELISA assay
Format: cell-based
Details: Homo sapiens, 22Rv1, 18 h, read-out: Degradation of BRD4: Maximum inhibition (%) c-Myc ELISA in 22RV1 cells

{"COMPOUND": "Cc1ncsc1-c1ccc(CNC(=O)[C@@H]2C[C@@H](O)CN2C(=O)[C@@H](NC(=O)COCC#CC#CCOc2ccc([C@@H](C)NC(=O)C[C@@H]3N=C(c4ccc(Cl)cc4)c4c(sc(C)c4C)-n4c(C)nnc43)cc2)C(C)(C)C)cc1", "Emax": "100%"}
{"COMPOUND": "Cc1ncsc1-c1ccc([C@H](C)NC(=O)[C@@H]2C[C@@H](O)CN2C(=O)[C@@H](C(C)C)n2cc(-c3ccnc(N4CC[C@@H](NC(=O)C[C@@H]5N=C(c6ccc(Cl)cc6)c6c(sc(C)c6C)-n6c(C)nnc65)C4)c3)cn2)cc1", "Emax": "51.4%"}
{"COMPOUND": "Cc1ncsc1-c1ccc(CNC(=O)[C@@H]2C[C@@H](O)CN2C(=O)[C@@H](NC(=O)COCCCOCC#Cc2ccc([C@@H](C)NC(=O)C[C@@H]3N=C(c4ccc(Cl)cc4)c4c(sc(C)c4C)-n4c(C)nnc43)cc2)C(C)(C)C)cc1", "Emax": "99%"}
{"COMPOUND": "Cc1ncsc1-c1ccc([C@H](C)NC(=O)[C@@H]2C[C@@H](O)CN2C(=O)C(C(C)C)n2cc(-c3cc(F)cc(O[C@H](C)CNC(=O)C[C@@H]4N=C(c5ccc(Cl)cc5)c5c(sc(C)c5C)-n5c(C)nnc54)c3)cn2)cc1 (stereo partly shown)", "Emax": "94.3%"}
{"COMPOUND": "Cc1ncsc1-c1ccc([C@H](C)NC(=O)[C@@H]2C[C@@H](O)CN2C(=O)[C@@H](NC(=O)Cc2cccc(C(=O)N3CCN(C(=O)C[C@@H]4N=C(c5ccc(Cl)cc5)c5c(sc(C)c5C)-n5c(C)nnc54)CC3)c2)C(C)(C)C)cc1", "Emax": "92%"}
{"COMPOUND": "Cc1ncsc1-c1ccc([C@H](C)NC(=O)[C@@H]2C[C@@H](O)CN2C(=O)[C@@H](NC(=O)[C@@H]2CC[C@H](COCCCNC(=O)C[C@@H]3N=C(c4ccc(Cl)cc4)c4c(sc(C)c4C)-n4c(C)nnc43)O2)C(C)(C)C)cc1", "Emax": "94.5%"}
{"COMPOUND": "Cc1ncsc1-c1ccc([C@H](C)NC(=O)[C@@H]2C[C@@H](O)CN2C(=O)[C@@H](NC(=O)/C=C/c2cc(F)cc(OC(C)CNC(=O)C[C@@H]3N=C(c4ccc(Cl)cc4)c4c(sc(C)c4C)-n4c(C)nnc43)c2)C(C)(C)C)cc1 (stereo partly shown)", "Emax": "95.4%"}
{"COMPOUND": "Cc1ncoc1-c1ccc(CNC(=O)[C@@H]2C[C@@H](O)CN2C(=O)[C@@H](NC(=O)COCCOCCCOc2ccc([C@@H](C)NC(=O)C[C@@H]3N=C(c4ccc(Cl)cc4)c4c(sc(C)c4C)-n4c(C)nnc43)cc2)C(C)(C)C)cc1", "Emax": "65%"}
{"COMPOUND": "Cc1ncsc1-c1ccc([C@H](C)NC(=O)[C@@H]2C[C@@H](O)CN2C(=O)[C@@H](n2cc(-c3ccnc(O[C@H]4C[C@@H](NC(=O)C[C@@H]5N=C(c6ccc(Cl)cc6)c6c(sc(C)c6C)-n6c(C)nnc65)C4)c3)cn2)C(C)(C)C)cc1", "Emax": "97%"}
{"COMPOUND": "Cc1ncsc1-c1ccc([C@H](C)NC(=O)[C@@H]2C[C@@H](O)CN2C(=O)[C@@H](NC(=O)c2cc3ccc(OCCNC(=O)C[C@@H]4N=C(c5ccc(Cl)cc5)c5c(sc(C)c5C)-n5c(C)nnc54)cc3o2)C(C)(C)C)cc1", "Emax": "100%"}
{"COMPOUND": "Cc1ncsc1-c1ccc([C@H](C)NC(=O)[C@@H]2C[C@@H](O)CN2C(=O)[C@@H](C(C)C)n2cc(-c3cc(F)cc(OCCNC(=O)C[C@@H]4N=C(c5ccc(Cl)cc5)c5c(sc(C)c5C)-n5c(C)nnc54)c3)cn2)cc1", "Emax": "79%"}
{"COMPOUND": "Cc1ncsc1-c1ccc(CNC(=O)[C@@H]2C[C@@H](O)CN2C(=O)[C@@H](NC(=O)COCCCOCCCOc2ccc(C(C)(C)NC(=O)C[C@@H]3N=C(c4ccc(Cl)cc4)c4c(sc(C)c4C)-n4c(C)nnc43)cc2)C(C)(C)C)cc1", "Emax": "96%"}
{"COMPOUND": "Cc1ncsc1-c1ccc(CNC(=O)[C@@H]2C[C@@H](O)CN2C(=O)[C@H](C(C)C)N2Cc3ccccc3C2=O)c(OCCOCCOCCCOCCOCCNC(=O)C[C@@H]2N=C(c3ccc(Cl)cc3)c3c(sc(C)c3C)-n3c(C)nnc32)c1", "Emax": "25%"}
{"COMPOUND": "Cc1ncoc1-c1ccc(CNC(=O)[C@@H]2C[C@@H](O)CN2C(=O)[C@@H](NC(=O)COc2ccc(O[C@H]3C[C@@H](NC(=O)C[C@@H]4N=C(c5ccc(Cl)cc5)c5c(sc(C)c5C)-n5c(C)nnc54)C3)nc2)C(C)(C)C)cc1", "Emax": "87.5%"}
{"COMPOUND": "Cc1ncsc1-c1ccc(CNC(=O)[C@@H]2C[C@@H](O)CN2C(=O)[C@@H](NC(=O)COCCOCCOCCOCCNC(=O)C[C@@H]2N=C(c3ccc(Cl)cc3)c3c(sc(C)c3C)-n3c(C)nnc32)C(C)(C)C)cc1", "Emax": "94%"}
{"COMPOUND": "Cc1ncsc1-c1ccc([C@H](C)NC(=O)[C@@H]2C[C@@H](O)CN2C(=O)[C@@H](NC(=O)Cc2ccc(N3CC[C@H](NC(=O)C[C@@H]4N=C(c5ccc(Cl)cc5)c5c(sc(C)c5C)-n5c(C)nnc54)C3)cc2)C(C)(C)C)cc1", "Emax": "97.5%"}
